From: patent US9018224B2

Target: UniProt Q8TDV5
Sequence (Q8TDV5 1-308 limits assumed): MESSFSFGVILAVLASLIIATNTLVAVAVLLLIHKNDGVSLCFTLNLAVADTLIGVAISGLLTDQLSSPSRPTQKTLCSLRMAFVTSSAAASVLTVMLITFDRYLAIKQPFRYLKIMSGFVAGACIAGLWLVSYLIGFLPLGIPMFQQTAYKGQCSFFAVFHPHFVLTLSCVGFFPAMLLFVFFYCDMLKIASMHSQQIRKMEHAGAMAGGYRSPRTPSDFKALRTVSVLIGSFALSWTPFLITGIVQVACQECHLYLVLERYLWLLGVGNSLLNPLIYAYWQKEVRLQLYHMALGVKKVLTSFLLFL
Test: Measurement of GPR119 signaling by cAMP (LANCE cAMP kit or HTRF) in HEK293 cells transfected with human GPR119
Settings: agonist cAMP response in HEK293 cells stably transfected with human GPR119; patent does not say which of the two cAMP formats (LANCE or HTRF)
pEC50: −log10 of the molar value.
QUANTITY NAME: pEC50

COMPOUND	QUANTITY NAME	QUANTITATIVE READOUT
COc1cnc(N2CCC([C@H]3C[C@H]3CCOc3ccc(CC(=O)N(C)C)c(F)c3)CC2)nc1 [Example 36]	pEC50	8.77
O=C(Cc1ccc(OCC[C@@H]2C[C@@H]2C2CCN(c3ncc(Cl)cn3)CC2)cc1F)N1Cc2cccnc2C1 [Example 123]	pEC50	9.11
CN(CC(C)(C)C)C(=O)Cc1ccc(OCC[C@@H]2C[C@@H]2C2CCN(c3ncc(Cl)cn3)CC2)cc1F [Example 168]	pEC50	8.03
CCOC(=O)CN(C)C(=O)Cc1ccc(OCC[C@@H]2C[C@@H]2C2CCN(c3ncc(Cl)cn3)CC2)cc1F [Example 171]	pEC50	8.77
O=C(Cc1ccc(OCC[C@@H]2C[C@@H]2C2CCN(c3ncc(Cl)cn3)CC2)cc1F)NC1CC1 [Example 62]	pEC50	8.85
CCN(CC)C(=O)Cc1ccc(OCC[C@@H]2C[C@@H]2C2CCN(c3ncc(Cl)cn3)CC2)cc1F [Example 98]	pEC50	8.04
COCc1cnc(N2CCC([C@H]3C[C@H]3CCOc3ccc(CC(=O)N4CC(O)C4)cc3)CC2)nc1 [Example 7]	pEC50	8.11
O=C(Cc1ccc(OCC[C@@H]2C[C@@H]2C2CCN(c3ncc(Cl)cn3)CC2)cc1)N1CC(F)C1 [Example 6]	pEC50	9.05
O=C(Cc1ccc(OCC[C@@H]2C[C@@H]2C2CCN(c3ncc(Cl)cn3)CC2)cc1F)N1CCCC1 [Example 85]	pEC50	9.21
O=C(Cc1ccc(OCC[C@@H]2C[C@@H]2C2CCN(c3ncc(Cl)cn3)CC2)cc1F)NC1CCCC1 [Example 83]	pEC50	8.89
COCc1cnc(N2CCC([C@H]3C[C@H]3CCOc3cc(F)c(CC(=O)N4CCC4)c(F)c3)CC2)nc1 [Example 219]	pEC50	9.74
CCN(C(=O)Cc1ccc(OCC[C@@H]2C[C@@H]2C2CCN(c3ncc(Cl)cn3)CC2)cc1F)C(C)C [Example 102]	pEC50	8.52
COCc1cnc(N2CCC([C@H]3C[C@H]3CCOc3ccc(CC(=O)N4CC(OC)C4)c(Cl)c3)CC2)nc1 [Example 30]	pEC50	9.07
COCc1cnc(N2CCC([C@H]3C[C@H]3CCOc3ccc(CC(=O)N4CC(OC)C4)c(F)c3)CC2)nc1 [Example 45]	pEC50	9.09

----------
Target: UniProt Q8TDV5
Assay: Measurement of GPR119 signaling by cAMP (LANCE cAMP kit or HTRF) in HEK293 cells transfected with human GPR119
Conditions: agonist cAMP response in HEK293 cells stably transfected with human GPR119; patent does not say which of the two cAMP formats (LANCE or HTRF)
The label is Yes for EC50 below 2 nM and No for EC50 equal to or exceeding 2 nM.

COMPOUND	LABEL CLASS
COc1cnc(N2CCC([C@H]3C[C@H]3CCOc3ccc(CC(=O)N4CC(C)(O)C4)c(F)c3)CC2)nc1	No
CC1(NC(=O)Cc2ccc(OCC[C@@H]3C[C@@H]3C3CCN(c4ncc(Cl)cn4)CC3)cc2F)CCCC1	No
COCc1cnc(N2CCC([C@H]3C[C@H]3CCOc3ccc(CC(=O)N4CCOCC4)c(Cl)c3)CC2)nc1	Yes
CCc1cnc(N2CCC([C@H]3C[C@H]3CCOc3ccc(CC(=O)N4CCC4)c(C#N)c3)CC2)nc1	Yes
O=C(Cc1ccc(OCC[C@@H]2C[C@@H]2C2CCN(c3ncc(Cl)cn3)CC2)cc1F)N1CCCc2cnccc21	No
O=C(Cc1ccc(OCC[C@@H]2C[C@@H]2C2CCN(c3ncc(Cl)cn3)CC2)cc1F)N1CCn2cc(C(F)(F)F)nc2C1	Yes
CC(CO)NC(=O)Cc1ccc(OCC[C@@H]2C[C@@H]2C2CCN(c3ncc(Cl)cn3)CC2)cc1F (stereo partly shown)	No
CCc1cnc(N2CCC([C@H]3C[C@H]3CCOc3ccc(CC(=O)N(C)C)c(C)c3)CC2)nc1	No
O=C(Cc1ccc(OCC[C@@H]2C[C@@H]2C2CCN(c3ncc(Cl)cn3)CC2)cc1F)N1CCc2[nH]nc(C(F)(F)F)c2C1	No
O=C(Cc1ccc(OCC[C@@H]2C[C@@H]2C2CCN(c3ncc(Cl)cn3)CC2)cc1F)N1CCc2ncccc2C1	Yes
COCc1cnc(N2CCC([C@H]3C[C@H]3CCOc3ccc(CC(=O)N4CCCCC4)c(F)c3)CC2)nc1	Yes
CC1CCC(N(C)C(=O)Cc2ccc(OCC[C@@H]3C[C@@H]3C3CCN(c4ncc(Cl)cn4)CC3)cc2F)CC1 (stereo partly shown)	No
O=C(Cc1ccc(OCC[C@@H]2C[C@@H]2C2CCN(c3ncc(Cl)cn3)CC2)cc1F)N1CCc2[nH]c(C(F)(F)F)nc2C1	No
